Assay: Plasma pharmacokinetics of SU5416 and metabolites in Phase I patients (HPLC UV)
Type: in vivo, human
Conditions: human, plasma, iv, 110 mg m^−2, individual patients, twice weekly i.v. infusion, dose 110 mg m^−2, cycle 1inj2
Protocol: Samples were taken prior to treatment infusion, 15 min into the infusion, at completion of the infusion and then at 5, 10, 20, 30, 45, 60, 120 and 240 min following the infusion. […] Pharmacokinetic analysis was performed using a fully validated HPLC UV method ([Stopeck et al, 2002]). […] Following centrifugation, drying and reconstitution in 200 μl mobile phase, 20 μl were analysed by HPLC UV. […] Pharmacokinetic parameters were evaluated using WinNonLin Software®.
assay.readout: AUC(0-t) (ng·h/mL)
Report only the number, with the unit ng·h/mL understood.

Give AUC(0-t) for the following compound: Cc1cc(C)c(/C=C2\C(=O)Nc3ccccc32)[nH]1
4020
